test system: Saos-2 (Osteosarcoma); assay: Bliss excess, mean over the matrix (fraction); higher = more synergy;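 also: after 72 h of two-drug dosing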
result-type: Bliss excess

>  <compound>
CN(CCO)CC[C@H](CSc1ccccc1)Nc1ccc(S(=O)(=O)NC(=O)c2ccc(N3CCC([C@@H](O)c4ccccc4-c4ccc(Cl)cc4)CC3)cc2)cc1S(=O)(=O)C(F)(F)F [AZD4320] + Cc1cc2ncnn2cc1Nc1ncc2c(n1)n(C1CCOCC1)c(=O)n2C [AZD7648] (first compound max 1 µM, 7x7, partner max 10 µM)

>  <result-type>
Bliss excess

>  <measurement>
-0.0389

$$$$
>  <compound>
CN(CCO)CC[C@H](CSc1ccccc1)Nc1ccc(S(=O)(=O)NC(=O)c2ccc(N3CCC([C@@H](O)c4ccccc4-c4ccc(Cl)cc4)CC3)cc2)cc1S(=O)(=O)C(F)(F)F [AZD4320] + C[C@@H](Nc1cc(F)cc(F)c1)c1cc(C(=O)N(C)C)cc2c(=O)cc(N3CCOCC3)oc12 [AZD8186] (first compound max 1 µM, 7x7, partner max 3 µM)

>  <result-type>
Bliss excess

>  <measurement>
-0.0258

$$$$
>  <compound>
CC1(C)CCC(CN2CCN(c3ccc(C(=O)NS(=O)(=O)c4ccc(NCC5CCOCC5)c([N+](=O)[O-])c4)c(Oc4cnc5[nH]ccc5c4)c3)CC2)=C(c2ccc(Cl)cc2)C1 [Venetoclax] + C1CN(CCC1(C(=O)N[C@@H](CCO)C2=CC=C(C=C2)Cl)N)C3=NC=NC4=C3C=CN4 [Capivasertib] (first compound max 1 µM, 7x7, partner max 3 µM)

>  <result-type>
Bliss excess

>  <measurement>
-0.029

$$$$

---

test system: H4 (Low Grade Glioma); assay: combination Emax (second highest fraction inhibited in the dose matrix, 72 h); higher = more inhibition; extreme values may be limits of the assay

>  <molecule>
Cn1cnc2c(F)c(Nc3ccc(Br)cc3Cl)c(C(=O)NOCCO)cc21 [Selumetinib] + CCN(CCO)CCCOc1ccc2c(Nc3cc(CC(=O)Nc4cccc(F)c4)[nH]n3)ncnc2c1 [AZD2811] (first compound max 10 µM, 7x7, partner max 1 µM)

>  <assay-system>
H4 (Low Grade Glioma)

>  <combination Emax>
0.306

$$$$
>  <molecule>
NC1(C(=O)N[C@@H](CCO)c2ccc(Cl)cc2)CCN(c2ncnc3[nH]ccc23)CC1 [Capivasertib] + CC(=O)c1c(C)c2cnc(Nc3ccc(N4CCNCC4)cn3)nc2n(C2CCCC2)c1=O [Palbociclib] (first compound max 10 µM, 7x7, partner max 10 µM)

>  <assay-system>
H4 (Low Grade Glioma)

>  <combination Emax>
0.751

$$$$
>  <molecule>
Cc1cc2ncnn2cc1Nc1ncc2c(n1)n(C1CCOCC1)c(=O)n2C [AZD7648] + C[C@@H]1COCCN1C2=NC(=NC(=C2)C3(CC3)[S@](=N)(=O)C)C4=C5C=CNC5=NC=C4 [AZD6738] (first compound max 10 µM, 7x7, partner max 10 µM)

>  <assay-system>
H4 (Low Grade Glioma)

>  <combination Emax>
0.789

$$$$
>  <molecule>
C[C@@H]1COCCN1c1cc(C2([S@](C)(=N)=O)CC2)nc(-c2ccnc3[nH]ccc23)n1 [AZD6738] + Nc1ccn([C@@H]2O[C@H](CO)[C@@H](O)C2(F)F)c(=O)n1 [Gemcitabine] (first compound max 10 µM, 7x7, partner max 0.3 µM)

>  <assay-system>
H4 (Low Grade Glioma)

>  <combination Emax>
0.957

$$$$
